# Target system: Stimulator of interferon genes protein (Homo sapiens); also: test concentration or dose not given here
# Sequence (Q86WV6 whole entry): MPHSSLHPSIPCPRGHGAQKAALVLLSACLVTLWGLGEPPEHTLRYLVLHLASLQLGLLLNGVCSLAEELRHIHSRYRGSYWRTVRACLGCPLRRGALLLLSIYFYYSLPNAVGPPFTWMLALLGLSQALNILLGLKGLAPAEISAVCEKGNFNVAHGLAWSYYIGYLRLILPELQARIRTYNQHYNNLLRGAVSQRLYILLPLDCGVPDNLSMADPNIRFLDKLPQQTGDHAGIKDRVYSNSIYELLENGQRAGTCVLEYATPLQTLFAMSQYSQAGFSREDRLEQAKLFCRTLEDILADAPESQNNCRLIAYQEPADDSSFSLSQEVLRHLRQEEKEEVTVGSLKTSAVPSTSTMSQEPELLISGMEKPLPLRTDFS
Assay readout: ΔTm (°C)

Recorded ΔTm, per entry:
Nc1nc2c(ncn2[C@@H]2O[C@@H]3COP(=O)(O)O[C@H]4C[C@H](n5cnc6c(N)nc(F)nc65)O[C@@H]4COP(=O)(O)O[C@@H]2[C@@H]3F)c(=O)[nH]1 : 10.7
CSc1ncnc2c1ncn2[C@@H]1O[C@@H]2COP(=O)(O)O[C@@H]3[C@H](O)[C@@H](COP(=O)(O)O[C@H]2[C@H]1O)O[C@H]3n1cnc2c(=O)[nH]c(N)nc21 : 8.3
Nc1ncc2ncn([C@@H]3O[C@@H]4COP(=O)(O)O[C@@H]5[C@H](O)[C@@H](COP(=O)(O)O[C@H]4[C@H]3O)O[C@H]5n3cnc4c(=O)[nH]c(N)nc43)c2n1 : 9.2
Nc1nc2c(ncn2[C@@H]2O[C@@H]3COP(=O)(O)O[C@H]4[C@@H](O)[C@H](n5cnc6c(=O)[nH]cnc65)O[C@@H]4COP(=O)(O)O[C@@H]2[C@@H]3O)c(=O)[nH]1 : 8.8

a. Nc1nc(N)c2ncn([C@@H]3O[C@@H]4COP(=O)(O)O[C@@H]5[C@H](O)[C@@H](COP(=O)(O)O[C@H]4[C@H]3O)O[C@H]5n3cnc4c(=O)nc(N)[nH]c43)c2n1
b. Nc1nc2c(ncn2[C@@H]2O[C@@H]3COP(=O)(O)O[C@H]4[C@@H](O)[C@H](n5cnc6c(O)nc(O)nc65)O[C@@H]4COP(=O)(O)O[C@@H]2[C@@H]3O)c(=O)[nH]1
Data request: // task: argmin of ΔTm over [ a , b ] Answer with the label corresponding to your selection.
Data returned: b
(b: 2.4 °C, a: 10 °C)
